procedureText: soluble on expression in E. coli; label from the status in PepcDB or PDB records
readout: soluble on expression in E. coli

MAKLDFHIVKRIREQIANGGTRVALKHKVAGAWQGITWEQFGQQVDTLSLALLAQGLGVQDKIGIFSNNMPQWTIADFAALQLRGVTVPIYPTNTAAQSAYIIDNADVKVLFVGEQPQFDAAVSIFEQCEQLELIVAMSDDIELGDHDFAISWKDFVAKGDTSHQAELDERLEQAKVDDLLTLIYTSGTTGQPKGVMLDYGNIAAQLEGHDQRLSLSQDDVSLCFLPLSHVFERAWTFYVLYKGATNCYLQDTMQVRDALSEVRPTVMCAVPRFYEKIFSAIHEKVSRAPIHRKIMFTWAVNMGAKMALCHQEKRKPSMMLRKAHA	not soluble
MGSDKIHHHHHHADILSCTVDGDILKAEPEIDNESVTLTVKSDADITNLAPVFTLTPGATITPASGSAFDFTTPRTYTVTSEDGHWTKTYTVRCIVSGVSTEYHFEHITMEPKNGRYQIFYDFTSNGDSVTWASGNAGFALTNNKLEPLDFPTMQDDNGYVGKCAKLVTRSTGSFGSGFGMPIAAGNLFIGTFDLLNAIPDARKGTRLGRPFDHVPTYLSGYYKYKAGESYKVNGEEVKGKKDQCDIYAIFYETDENVKYLDGFNGLTSPNLISVARISDQKETDEWTRFYIPFVAKPGKVIDKDKLAKGGYQLSIVFSSSLKGDVFEGAEGSTLWIDEVEIIQSGEN	not soluble
MGSSHHHHHHGGTGENLYFQGGSGSSVTPTIPFKAWLKLHAKAICQALPLSLLIVVEARDLYYRATWDVAPVPPSKFEVGDVIAVCNRWYTLPTWSHVVYSWLSKVLLKSCWDDVGVISSVKNGTPHILYVDFHGVHEQPLATFLETRCPRGAAVRKLRRDEGVPSPSPAIADLFRKEVEMISVEPWFLFSASMRGGNEHKYYEFCVRMHEQRCKIRSMLQRRQSRPAIEAQQTSLKEMEVMRQHLAKFVEPVTHFHLYNGSLVASFFATYGLLDREMPSPSRYVPQDFAHTIPFLGATTLDEPIVFFRN	not soluble
SLRAFRRATDVKTMAALDIQISVEAEGWSSEENLAAFATKVLNAAVDFLKREEEQPFPKMPVELSLVFTDDENIREINAEWRDKDKATNVLSFPAFPLEPGGMPGPMLGDIVIARETVEREALELDKSFEDHLTHLLVHGFLHLFGYDHMDEEEAEEMESLETRILAVLGLSDPYAGQE	not soluble

Query AHHHHHHGSGGLALEGRSIVFASGKGGTGKTTTVANIGVALAQFGKEVILIDADITMANLSLILGMEDIPITLHDVLAGEAELKDAIYEGPAGVKVIPGGLSLEKVKKARPERLRELIKEISQMGDFILIDAPAGLELTSVTALLIGKELIIVTNPEISAITDSLKTKLVAEKLGTLPLGAILNRVTSEKTELSKEEIEAILEVPVIGIVPEDPEVKRASAYGVPLVIKNPTSPAAIAYKQIAAKLAGIKWTPPEPESPVKRIFKALFGGKR yields soluble on expression in E. coli of soluble

Data point: MSEQSFSNANKGSETLNGSAASFVSHKRFYDDTNFPKGFKRSGDFTSKEAELLELHGHAMKNLAEGKTLPVTADEAQFVEVIKGNIAPSSLLEHIWLKYRKLARGKPFYAVVGTVHLPATKPEVEVEPEAAFDVDVEIEDDVQDEAEPEDKA ; soluble on expression in E. coli = soluble

For this sequence ( MAHHHHHHMLRLSFVHRKSRHQNVLRRGRPHMQKYRELNRWQRQAQGISKWDQSQSHRPLPYVERFNPEGVGVTRGTSAFAWQWWHTQQPWLPNVAPPNHTGRKITNTSGTTEETAKPPAWDEEFTSVVLSMTDSEIREYLLDKLTDVIFAETQRDGYELRRLDFEGNPLTELPERRIIESFVFEEETLRERVIYQVVEGVFRLSPTSADRRELRSVETIIDYVLTHVSAARPDSRPRVTPAALAVMQQCPLQPELGFVHALPVDSRDEILQEWERMHHLDWQFGKAVYVPRSREETRGNLTWLREERHNAERVEFMKRVASGEAKAEHMRRIAEAACTERPETMHG ), measured soluble on expression in E. coli is not soluble

Documented soluble on expression in E. coli of MDGDIIDQYRFPSPHPGIDVFFVTYMSQGLKVKGFLAAPKRKGVYDGFLYLRGGIKNVGQVRVPRLVQFASQGFVVFAPLYRGNGGGEGNEDFAGDDRYDALAGFHLLRRHPLVHPGRVHMFGFSRGGAMALHAAVMAEGVCSVAVWGGVADLELTYWERPDLRRMMKRVIGGTPNKCPERYRHRTPLYHLERLKAPVLIIHGGRDENVSIEHAWRLERRLKQLGKPVTAWYFPEFTHYFPPQANRETVQRLTEWMKQQPTM : not soluble

Query MLKDEYGRVVTNLRIAVTKKCNLRCFYCHKEGESNPGEEISAERIVEIARAFKELGVRKLKITGGEPLLRKDLPDIILNLPEFEEISMTTNGILLEKYAEELRECGLSRVNVSLDTLDAEKYRWITGGGEVQKVVNGIEKACEVGLTPVKINMLVLGGVNDNEVDELLEFTNSFNRGNTKAILQVIELVPFPGFEKYFFDISTIEEKYARMATQRRVRAMHRRTQYFTPKGVIEFVKPMDNTAFCMHCNRMRVTSDGKLKPCLLRNETITIDGKHGEELARAIIETVRKREPYFKGLEHHHHHH yields soluble on expression in E. coli of soluble

Noted for SNMEVDVFPDLNAPTVVVMTEATGMAPEEVERLVTFPVETAVNGATDVRRVRSSSTTGFSIVWVEFDWGTDIYRARQIVSEKLAVVGADLPDNVGKPTLGPQSSILGEVMIIGLTADSTSLQDLRTLADWTIRPRLLSIGGVAQVTVLGGDIKEYQILLNPERMKHYGITLAEVRAAVDQMNRNASGGVLYEYGNEYIICGLLSTNDAAALGKTLVKSLDDIPIMLESVAEVRVGNKAPKLGLASERGQSAVLVTITKQPATSTLELTERLDRSLADLQKALPSDVKVSTDIFRQERFIENSISNVRK : its soluble on expression in E. coli reads not soluble

Field soluble on expression in E. coli (entry MDNDRDTVEFWSSLFQSFADSEPKDNPYPVVRSPIMTMSTPMAIDEPVEPWKVLEYGGKEVRPMAIDEPAEPWKALEYGGKDVRPMAIDVPAEPWKVGGKEAQPANAAAEAGYKNVNTDQEKSTQKATEKVIM ) reads soluble
